biological target: Cathepsin S (Homo sapiens) (UniProt P25774); assay: blockers of CTSS protease activity – biochemical, compound mixtures (AID 501); conditions: recombinant cathepsin S, AMC dipeptide fluorescence, pooled mixtures;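 tested at 5 µM per compound within 10-compound mixtures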
Sequence (P25774 115-331 limits assumed): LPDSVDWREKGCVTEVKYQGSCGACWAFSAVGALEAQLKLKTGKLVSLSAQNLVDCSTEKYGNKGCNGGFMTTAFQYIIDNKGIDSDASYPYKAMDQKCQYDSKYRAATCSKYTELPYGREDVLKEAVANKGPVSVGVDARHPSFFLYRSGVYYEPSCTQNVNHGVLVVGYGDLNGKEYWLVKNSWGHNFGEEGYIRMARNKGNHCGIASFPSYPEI
Screen size: about 62,000 compounds; about 35 (0.06%) were called active. No stated cut-off is given here; in the data, active means inhibition above about 32% (passing the limit was not always enough); inconclusive means no clear call, values can overlap the other calls. Only a selection was taken, and actives are over-represented in it overall.
Returns: one label drawn from YES for active, NO for inactive

Lookup: Would you mind telling me which call this test gave O=C1c2ccccc2C(=O)N1c1ccccc1S(=O)C(F)(F)F (stereo not drawn) ?
Found: NO

Lookup: Would you mind telling me which call this test gave CC(=O)Nc1ccc(-c2cn3cccnc3n2)cc1 ?
Found: NO

Lookup: Would you mind telling me which call this test gave COCCn1c(CN(Cc2ccccc2)Cc2ccccc2)nc2c1c(=O)n(C)c(=O)n2C ?
Found: NO

Lookup: Would you mind telling me which call this test gave CCOC(=O)C1(c2ccccc2)NC(c2ccc(N(C)C)cc2)C2C(=O)N(C)C(=O)C21 (stereo not drawn) ?
Found: NO

Lookup: Would you mind telling me which call this test gave CCOC(=O)CSc1nnc(CNc2nc(-c3ccccc3)cs2)n1C ?
Found: NO

Lookup: Would you mind telling me which call this test gave CCN(C(=O)CSc1ncn[nH]1)c1cccc2ccccc12 ?
Found: NO

Lookup: Would you mind telling me which call this test gave CC(C)C[C@H](NC(=O)[C@@H]1O[C@H]1C(=O)O)C(=O)NCCCCN=C(N)N ?
Found: YES

Lookup: Would you mind telling me which call this test gave CC(NC(=O)CN1CCN(Cc2ccc(Cl)cc2)C1=O)c1ccc2c(c1)OCCO2 (stereo not drawn) ?
Found: NO

Lookup: Would you mind telling me which call this test gave COc1ccc(-c2ccc(-c3noc(-c4ccncc4)n3)c(OC)n2)cc1 ?
Found: NO

Lookup: Would you mind telling me which call this test gave CN1CCN(CC(O)COCc2ccc3c(c2)OCO3)CC1 (stereo not drawn) ?
Found: NO

Lookup: Would you mind telling me which call this test gave C=CCNC(=O)C1CC=CCC1C(=O)O (stereo not drawn) ?
Found: NO

Lookup: Would you mind telling me which call this test gave O=C(c1ccc2c(c1)C(=O)N(c1ccc(Cl)cc1)C2=O)N1CCN(c2ccccn2)CC1 ?
Found: NO

Lookup: Would you mind telling me which call this test gave CCOc1ccc(C2C(C(=O)O)c3ccccc3C(=O)N2CCN2CCOCC2)cc1 (stereo not drawn) ?
Found: NO

Lookup: Would you mind telling me which call this test gave CCOc1cc(C(=O)Nc2ncccn2)cc(OCC)c1OCC ?
Found: NO

Lookup: Would you mind telling me which call this test gave O=C(O)C1CCCN(S(=O)(=O)c2cccc3cccnc23)C1 (stereo not drawn) ?
Found: NO

Lookup: Would you mind telling me which call this test gave Cc1ccc(-c2nnc(SC(C)C#N)n2N)cc1 (stereo not drawn) ?
Found: NO

Lookup: Would you mind telling me which call this test gave Cn1c(=NC(=O)CSCC(=O)N2CCOCC2)sc2ccccc21 ?
Found: NO

Lookup: Would you mind telling me which call this test gave CCOC(=O)c1sc(=S)n2c1[nH]c(=O)c1ccc(C(=O)OC)cc12 ?
Found: NO

Lookup: Would you mind telling me which call this test gave CC(CNC(=O)c1ccc(Br)o1)NC(=O)c1ccc(Br)o1 (stereo not drawn) ?
Found: NO

Lookup: Would you mind telling me which call this test gave CCOC(=O)C1=C(CNC2CCCCC2)NC(=O)NC1c1cc(C)ccc1C (stereo not drawn) ?
Found: NO

Lookup: Would you mind telling me which call this test gave CSCC[C@H](NC(=O)NCCc1ccc(F)cc1)C(=O)O ?
Found: NO

Lookup: Would you mind telling me which call this test gave COc1ccc(-c2noc(CN(C)S(=O)(=O)c3ccc(C)cc3)n2)cc1 ?
Found: NO

Lookup: Would you mind telling me which call this test gave CCn1ncc(Br)c1C(=O)Nc1cc(C)ccc1F ?
Found: NO
